measurement.protocol: Half life in rat at 10 mg/kg, po and 3 mg/kg, iv
Assay type: ADME, organism-based
condition.details: in vivo
readout.label: half-life (h)

| structure.notation | half-life / h |
| --- | --- |
| COc1cc2nnc(C(N)=O)c(Nc3ccc(C)cc3F)c2cc1N1CCN(C(C)C)CC1 | 2.5 |

[1] COc1cc2nnc(C(N)=O)c(Nc3ccc(C)cc3F)c2cc1C1CCN(C(C)C)CC1
[2] COc1cc2nnc(C(N)=O)c(Nc3ccc(C)cc3F)c2cc1N1CCCN(CCO)CC1
[3] COc1cc2nnc(C(N)=O)c(Nc3ccc(C)cc3F)c2cc1N1CCC(OC)CC1
Query :: Please list the entries, largest half-life first. Answer by listing the labels in the order asked for.
Result :: 1, 2, 3

Data provenance: ChEMBL document CHEMBL2406904
